This collection of values is drawn from paper PMC3590845.

Assay explanation: GSH-activated NO release by chemiluminescence
Assay type: physicochemical
Recorded conditions: 4 mM GSH, pH 7.4 phosphate buffer, 37 °C
Give measured NO yield (mol)/mol of compound mean (SE) for each item. Keep answers brief.

Consider the reported NO yield (mol)/mol of compound mean (SE) for these molecules:
// NO yield (mol)/mol of compound mean (SE) value for CCOC(=O)N1CCCN(/[N+]([O-])=N/Oc2ccc([N+](=O)[O-])cc2C#N)CC1 : 2.01 (0.03) mol/mol of compound

Per the records, this molecule ( CCOC(=O)N1CCN(/[N+]([O-])=N/Oc2ccc([N+](=O)[O-])cc2[N+](=O)[O-])CC1 [JS-K, reference compound] ) has NO yield (mol)/mol of compound mean (SE) equal to 1.96 (0.03) mol/mol of compound

For every item below, please supply its NO yield (mol)/mol of compound mean (SE).
1. CCOC(=O)N1CCCN(/[N+]([O-])=N/Oc2ccc(C#N)cc2[N+](=O)[O-])CC1
2. CCOC(=O)N1CCCN(/[N+]([O-])=N/Oc2ccc([N+](=O)[O-])cc2[N+](=O)[O-])CC1 [Compound 2, reference compound]
3. CCOC(=O)N1CCN(/[N+]([O-])=N/Oc2ccc([N+](=O)[O-])cc2C#N)CC1
4. CCOC(=O)N1CCN(/[N+]([O-])=N/Oc2ccc(C#N)cc2[N+](=O)[O-])CC1

Resp:
1.96 (0.04) mol/mol of compound
2.00 (0.04) mol/mol of compound
2.04 (0.01) mol/mol of compound
2.02 (0.06) mol/mol of compound
